# procedure details: LTEA_HepaRG_LDH_cytotoxicity: Cytotoxicity Assessment in the Life Technologies and Expression Analysis (LTEA) Assay (AID 2283563)
Calls of active or inactive are those of the source. The calls were made as follows: active = hit-call score of the fitted dose curve at least 0.9, where 1 is the maximum; inconclusive = response in the unintended direction; inactive = score below 0.9.
Classes to choose from: active, inactive

For orientation, consider the following solved cases.
INSERT INTO results (line_notation, discrete_label) VALUES
  ('O=C(CCCN1CCC(O)(c2ccc(Cl)cc2)CC1)c1ccc(F)cc1', 'active'),
  ('CCCCCCCCCCCCCCC', 'inactive'),
  ('CN(Cc1cnc2nc(N)nc(N)c2n1)c1ccc(C(=O)N[C@@H](CCC(=O)O)C(=O)O)cc1', 'inactive');

Challenge: Lab log entry: "CN(C)CCOC(c1ccccc1)c1ccccc1" — outcome as called in the assay?
Response given: inactive

Challenge: Let us now turn to "CCCCC=O"
Response given: inactive

====

# Read-out: TIMP metallopeptidase inhibitor 1 (TIMP1), TIMP1 (gene 7076)
# procedure details: BSK_hDFCGF_TIMP1: BioMAP Diversity Plus: hDFCGF Assay for TIMP metallopeptidase inhibitor 1 (TIMP1) Biomarker Activity (AID 2283062)
# condition notes: primary human foreskin fibroblasts; actives raise or lower the signal
# Protocol: BSK_hDFCGF is a cell-based, multiplexed-readout assay that uses foreskin fibroblast, a human skin primary cell, with measurements taken at 24 hours after chemical dosing in a 96-well plate.BSK_hDFCGF_TIMP1 is an assay component measured in the BSK_hDFCGF assay. It measures TIMP-1 antibody related to regulation of gene expression using ELISA technology.Data from the assay component BSK_hDFCGF_TIMP1 was analyzed into 1 assay endpoint. […]
The source made the active and inactive calls. How the source made its calls: active means hit-call score of the fitted dose curve at least 0.9, where 1 is the maximum; inactive means score below 0.9.
Just give me one of these, please: active, inactive

Below are worked cases with known answers.
INSERT INTO measurements (line_notation, discrete_label) VALUES
  ('COc1cccc(O)c1', 'inactive'),
  ('Cc1ccc(C(=O)c2ccccc2)cc1', 'active'),
  ('CN(C)c1ccc(C(=C2C=CC(=[N+](C)C)C=C2)c2ccccc2)cc1', 'active'),
  ('O=C1NS(=O)(=O)c2ccccc21', 'inactive');

Now for another entry.
Challenge: Entry "O=P(O)(O)CCC(F)(F)C(F)(F)C(F)(F)C(F)(F)C(F)(F)C(F)(F)C(F)(F)C(F)(F)F" : call = ?
Response given: inactive

====

# procedure details: ATG_PPRE_CIS: Attagene CIS-FACTORIAL HepG2 Assay for human Peroxisome Proliferator-activated Response Element (PPRE) (AID 2282958)
# condition notes: HepG2 PPRE cis-element reporter, Attagene transcription factor profiling; actives raise or lower the signal
Activity calls are given as the source filed them. Rule for the calls: active = hit-call score of the fitted dose curve at least 0.9, where 1 is the maximum; inactive = score below 0.9.
API: response.call in Y (active), N (inactive)

Example entries and their recorded answers appear below.
INSERT INTO measurements (compound, discrete_label) VALUES
  ('O=C(Nc1cccc([N+](=O)[O-])c1)c1cc2ccccc2cc1O', 'Y'),
  ('Clc1ccc2c(Cl)ccnc2c1', 'Y'),
  ('CCCCc1oc2ccccc2c1C(=O)c1cc(I)c(OCCN(CC)CC)c(I)c1', 'N'),
  ('C=CC(F)(F)C(F)(F)C(F)(F)C(F)(F)F', 'N'),
  ('Cc1ccc2ccc3ccc(C)cc3c2c1', 'N');

Challenge: Assay result, entry "CC(=O)CC(C)C" — outcome?
Response given: N

Challenge: Now the same for CC1CNCC(C)O1 (stereo not given)
Response given: N

Challenge: For COC(O)c1ccccc1 (stereo not given) then?
Response given: N

Challenge: What do you get for "CC(C)(C)c1ccc(CCC=O)cc1" ?
Response given: N

Challenge: Follow-up entry: "FC(F)(F)C1(F)C(F)(F)C(F)(F)C(F)(F)C1(F)F"
Response given: N

Challenge: Thanks! And "FC(F)(F)C(F)(F)C(F)(F)C(F)(F)I" ?
Response given: N

Challenge: Moving on to the next compound: "CCCC=O"
Response given: N

Challenge: Would you kindly repeat that for "CCCCCCOC(=O)c1ccc(O)cc1" ?
Response given: Y

Challenge: Now this one: "FCOC(C(F)(F)F)C(F)(F)F"
Response given: N

Challenge: "CCc1cccc(CC)c1NC(=O)C(=O)O" , same question.
Response given: N

====

# Read-out: Urokinase-type plasminogen activator receptor (uPAR), PLAUR (gene 5329)
# procedure details: BSK_BE3C_uPAR: BioMAP Diversity Plus: BE3C Assay for Urokinase-type plasminogen activator receptor (uPAR) Biomarker Activity (AID 2283039)
# condition notes: primary human bronchial epithelial cells; actives raise or lower the signal
# Protocol: BSK_BE3C is a cell-based, multiplexed-readout assay that uses bronchial epithelial cell, a human lung primary cell, with measurements taken at 24 hours after chemical dosing in a 96-well plate.BSK_BE3CAR is an assay component measured in the BSK_BE3C assay. It measures uPAR antibody related to regulation of gene expression using ELISA technology.Data from the assay component BSK_BE3CAR was analyzed into 1 assay endpoint. […]
The source made the active and inactive calls. Rule for the calls: active = hit-call score of the fitted dose curve at least 0.9, where 1 is the maximum; inactive = score below 0.9.
Assign a class; possible classes are T (active), F (inactive)

INSERT INTO measurements (compound, discrete_label) VALUES
  ('Cc1cccc2c1ccc1ccccc12', 'F'),
  ('CS(=O)(=O)c1ccc([C@@H](CC2CCCC2)C(=O)Nc2cnccn2)cc1Cl', 'F'),
  ('O=C1OC2(c3ccccc31)c1cc(I)c(O)c(I)c1Oc1c2cc(I)c(O)c1I', 'T'),
  ('CN(Cc1cnc2nc(N)nc(N)c2n1)c1ccc(C(=O)N[C@@H](CCC(=O)O)C(=O)O)cc1', 'F'),
  ('C=CC(C)(CCC=C(C)C)OC(C)=O (stereo unspecified)', 'T');

Challenge: Check the results log: what was the call for "COc1cc(OC)nc(NC(=O)NS(=O)(=O)Nc2ccccc2C(=O)N(C)C)n1" ?
Response given: F

Challenge: Record: "O=C(CCCN1CCC(O)(c2ccc(Cl)cc2)CC1)c1ccc(F)cc1"
Response given: F

Challenge: "O=C(CC(=O)C(F)(F)C(F)(F)C(F)(F)F)c1cccs1" ?
Response given: T

Challenge: One more compound: "Oc1cc2ccccc2cc1O"
Response given: F

Challenge: Quick one: "Clc1ccc(Nc2nnc(Cc3ccncc3)c3ccccc23)cc1"
Response given: F

Challenge: Same question for "CCCCCCCCCCCCOS(=O)(=O)O" please.
Response given: T

====

# procedure details: ATG_PXRE_CIS: Attagene CIS-FACTORIAL HepG2 Assay for human Pregnane X Receptor Element (PXRE) (AID 2282957)
# condition notes: HepG2 Attagene CIS-FACTORIAL PXRE reporter, mRNA; actives raise or lower the signal
Active and inactive are the calls of the source. The calls were made as follows: active = hit-call score of the fitted dose curve at least 0.9, where 1 is the maximum; inactive = score below 0.9.
Just give me one of these, please: active, inactive

Would you please look over these solved cases?
INSERT INTO results (compound, discrete_label) VALUES
  ('CCOC(OCC)C(=O)c1ccccc1', 'active'),
  ('C=CC(=C)CC/C=C(\C)CCC=C(C)C', 'active'),
  ('FC(F)(F)C1(F)C(F)(F)C(F)(F)C(F)(F)C(F)(C(F)(F)F)C1(F)F (stereo not drawn)', 'inactive');

Challenge: Please share the test call associated with "O=C1OC(=O)C(F)(F)C1(F)F" .
Response given: inactive

Challenge: Would you mind doing "Cc1ccc(C(=O)c2ccccc2)cc1" as well?
Response given: active

Challenge: Same read-out for "C[C@]12CC[C@@H]3c4ccc(O)cc4CC[C@H]3[C@@H]1CC[C@@H]2OC(=O)CCC1CCCC1" ?
Response given: active

Challenge: Another compound to look at: "CC(C)(C)c1ccc(CCC=O)cc1"
Response given: active

====

# procedure details: CCTE_Mundy_HCI_hNP1_Casp3_7: CCTE's Caspase-Glo 3/7 Assay in human neuroprogenitor cells for Apoptosis, Mundy Lab (AID 2284240)
Active and inactive are the calls of the source. Rule for the calls: active = hit-call score of the fitted dose curve at least 0.9, where 1 is the maximum; inactive = score below 0.9.
Field 'call' accepts active, inactive

Challenge: What classification did "O=P(O)(O)CCC(F)(F)C(F)(F)C(F)(F)C(F)(F)C(F)(F)C(F)(F)F" end up with in this test?
Response given: inactive

Challenge: Same question, "C=CC(=O)OCCC(F)(F)C(F)(F)C(F)(F)C(F)(F)C(F)(F)C(F)(F)C(F)(F)C(F)(F)F" this time
Response given: inactive

Challenge: Let us now turn to "O=C1NS(=O)(=O)c2ccccc21"
Response given: inactive

Challenge: Next compound up: "O=P(O)(O)CCC(F)(F)C(F)(F)C(F)(F)C(F)(F)C(F)(F)C(F)(F)C(F)(F)C(F)(F)F"
Response given: inactive

Challenge: Repeat with "CC(=O)Nc1ccc(O)cc1"
Response given: inactive

Challenge: Also "O=C(CCCN1CCC(O)(c2ccc(Cl)cc2)CC1)c1ccc(F)cc1" , if possible.
Response given: active

====

# study system: human Retinoic Acid Receptor gamma (RARg), RARG (gene 5916) (UniProt P13631)
# Sequence (P13631 whole entry, looked up): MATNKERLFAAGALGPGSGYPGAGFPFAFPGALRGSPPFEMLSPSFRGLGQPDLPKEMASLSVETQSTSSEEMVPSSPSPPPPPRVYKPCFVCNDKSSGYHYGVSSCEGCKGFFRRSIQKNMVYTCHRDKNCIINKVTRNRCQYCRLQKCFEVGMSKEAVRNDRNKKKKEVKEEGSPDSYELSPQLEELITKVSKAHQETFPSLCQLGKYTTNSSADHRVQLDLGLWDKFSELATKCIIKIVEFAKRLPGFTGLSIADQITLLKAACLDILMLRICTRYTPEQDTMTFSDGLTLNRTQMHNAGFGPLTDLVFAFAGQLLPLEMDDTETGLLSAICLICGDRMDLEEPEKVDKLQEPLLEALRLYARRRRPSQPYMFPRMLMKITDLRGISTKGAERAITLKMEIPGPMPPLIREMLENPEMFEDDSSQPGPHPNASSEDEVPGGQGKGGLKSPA
# procedure details: ATG_RARg_TRANS: Attagene TRANS-FACTORIAL HepG2 Assay for human Retinoic Acid Receptor gamma (RARg) (AID 2283009)
Records with an inconclusive call do not appear. Active and inactive are the calls of the source. Rule for the calls: active = hit-call score of the fitted dose curve at least 0.9, where 1 is the maximum; inconclusive = response in the unintended direction; inactive = score below 0.9.
Lab note: assign the record to one of active, inactive

Answered cases to consult:
INSERT INTO measurements (compound, study_system, discrete_label) VALUES
  ('CN(Cc1cnc2nc(N)nc(N)c2n1)c1ccc(C(=O)N[C@@H](CCC(=O)O)C(=O)O)cc1', 'human Retinoic Acid Receptor gamma (RARg), RARG (gene 5916) (UniProt P13631)', 'inactive'),
  ('CCCCc1oc2ccccc2c1C(=O)c1cc(I)c(OCCN(CC)CC)c(I)c1', 'human Retinoic Acid Receptor gamma (RARg), RARG (gene 5916) (UniProt P13631)', 'inactive'),
  ('C=Cc1ccc(O)c(OC)c1', 'human Retinoic Acid Receptor gamma (RARg), RARG (gene 5916) (UniProt P13631)', 'inactive'),
  ('CCCCCCCCCCCC(=O)O', 'human Retinoic Acid Receptor gamma (RARg), RARG (gene 5916) (UniProt P13631)', 'inactive'),
  ('O=C(CC(=O)C(F)(F)C(F)(F)C(F)(F)F)c1cccs1', 'human Retinoic Acid Receptor gamma (RARg), RARG (gene 5916) (UniProt P13631)', 'inactive');

Challenge: Assay result, entry "Cc1ccc(N=Nc2c(O)ccc3ccccc23)c(C)c1" — outcome?
Response given: inactive

Challenge: Now try "COCN(COC)c1nc(N(COC)COC)nc(N(COC)COC)n1" .
Response given: inactive

Challenge: Same for "Cc1cccc2c1ccc1ccccc12"
Response given: inactive

Challenge: Next compound up: "CCCCCCCCCCCC[N+](C)(C)Cc1ccccc1"
Response given: active

Challenge: Also "Oc1c(Cl)cc(Cl)cc1Sc1cc(Cl)cc(Cl)c1O" ?
Response given: inactive

Challenge: Moving on to "C[N+](C)(CCCNS(=O)(=O)CCC(F)(F)C(F)(F)C(F)(F)C(F)(F)C(F)(F)C(F)(F)F)CC(=O)[O-]"
Response given: inactive

Challenge: Moving on to "O=C(Nc1ccc(Cl)c(Cl)c1)c1cc(Cl)cc(Cl)c1O"
Response given: inactive

Challenge: Please answer likewise for "CCc1ccccc1O"
Response given: inactive

Challenge: Let us now turn to "NNC(=O)CCCCC(=O)NN"
Response given: inactive

Challenge: What do we get for "COc1ccccc1NC(=O)c1cc2ccccc2cc1O" ?
Response given: inactive

Challenge: Follow-up item: "CCOC=O"
Response given: inactive

Challenge: Field entry: "O=C(O)CN(CCCN(CC(=O)O)CC(=O)O)CC(=O)O"
Response given: inactive

Challenge: Cool, now "CCCCCCCCCCCCCCCC(=O)OC"
Response given: inactive

Challenge: Now consider "Oc1c(Cl)ccc(Cl)c1Cl" and answer again.
Response given: inactive
